System: KM-20L2
PROTOCOL: NCI tumour cell line growth inhibition, 48 h
Structures can show the parent of a compound that is named as a salt. Active and inactive are the calls of the source. Cut-off read from the data, not from the text of the source: active = GI50 up to about 1.1 µM and inactive = higher.
Labels: active, inactive

COMPOUND	CAT
Cc1ccc(-n2c(=S)[nH]c3ccc(Br)cc3c2=O)cc1	inactive
C[C@]12CCC(=O)C(O)=C1CC[C@@H]1[C@@H]2CC[C@]2(C)C(=O)CC[C@@H]12	inactive
NC(=O)NNC(=O)NC12CC3CC(CC(C3)C1)C2	inactive
Cc1cc(Cl)ccc1NC(=O)C(=O)Cc1ccc([N+](=O)[O-])c([N+](=O)[O-])c1CC(=O)C(=O)Nc1ccc(Cl)cc1C	inactive
O=C(O)Cc1cccc2c1Oc1ccccc1S2	inactive
C=CC(=O)NCNC(=O)C=C	inactive
c1ccc(SC2CCSc3ccccc3C2Sc2ccccc2)cc1 (centres undefined)	inactive
CCOC(=O)C1=C(C)N(C2OC(COC(=O)c3ccccc3)C(OC(=O)c3ccccc3)C2OC(=O)c2ccccc2)C(=S)NC1c1ccccc1 (centres undefined)	inactive
CC(=O)O[C@]12CCCCCC1C1(O)C(O)CCCC[C@H]12 (some centres undefined)	inactive
COc1cc2c(cc1OC)C(C#N)N(C(=O)c1ccccc1)C=C2OC(=O)c1ccccc1 (centres undefined)	inactive
CC(C)(C)/N=N/C(C)(C)N=C=O	inactive
O=C(CSc1nc(-c2ccccc2)c(-c2ccccc2)[nH]1)NNC(=S)Nc1ccccc1	inactive
CNC1C(O)CC(OC2C/C=C(\C)C/C(C)=C/C=C/CCC(C)CNC(=O)/C=C/C=C/C2C)OC1C (centres undefined)	active
COC(=O)C1=CO[C@@H](C)[C@@H]2Cn3ccc4c5ccccc5nc-4c3C[C@H]12 [ALSTONINE HYDROCHLORIDE]	inactive
Cc1cc(C)nc(NS(=O)(=O)c2ccc(NC(=O)c3ccc(Cl)c4c(Nc5ccc(S(=O)(=O)Nc6nc(C)cc(C)n6)cc5)c5ccccc5nc34)cc2)n1	inactive
CC(=O)O[C@]12CCC[C@H]1C1(O)C(O)CCC[C@H]12 (some centres undefined)	inactive
CC(OC(C)(C)C)[C@H](NC(=O)OCC(Cl)(Cl)Cl)C(=O)O (some centres undefined)	inactive
O=C1Cc2c([nH]c3ccccc23)-c2cc(Br)ccc2N1	inactive
C=CCN1/C(=C(\C#N)c2nc3ccccc3[nH]2)Sc2c1nc[nH]c2=O	inactive

====

Test system: RXF 631
PROTOCOL: NCI tumour cell line growth inhibition, 48 h
Active and inactive are the calls of the source. No stated cut-off is given here; in the data, active = GI50 up to about 1.1 µM and inactive = higher.
GI50 values by entry
MEASURE: GI50

COMPOUND	MEASURE	REPORTED VALUE
Cn1c2c(c3ccccc31)CCN(CCN1CCN(c3ccccc3)CC1)C2=O	GI50	> 100 µM (inactive)
CCOC(OC1=C(C#N)CCC1)C(C)[Se]c1ccccc1 (configuration not stated)	GI50	11.1 µM (inactive)
c1ccc2c(c1)CCC/C2=N\OCC1CO1 (configuration not stated)	GI50	> 100 µM (inactive)
CCOC(OC1=C(C#N)CCCC1)C(CC)[Se]c1ccccc1 (configuration not stated)	GI50	11.3 µM (inactive)
Cc1cc(C)nc(NS(=O)(=O)c2ccc(NC(=O)c3ccc(Cl)c4c(Nc5ccc(S(=O)(=O)Nc6nc(C)cc(C)n6)cc5)c5ccccc5nc34)cc2)n1	GI50	4.29 µM (inactive)
O=C1CCC(=O)C1=NNc1cc(Cl)cc(Cl)c1	GI50	> 100 µM (inactive)
CC(C)(C)c1cc(C(O)(C(F)(F)F)C(F)(F)F)c2c(c1)C(C(F)(F)F)(C(F)(F)F)OC(C(C)(C)C)N2 (configuration not stated)	GI50	2.15 µM (inactive)

====

Tested on: Malme-3M
PROTOCOL: NCI tumour cell line growth inhibition, 48 h
The source made the active and inactive calls. Rule as the data show it: active = GI50 up to about 1.1 µM and inactive = higher. Where a SMILES comes first, the peptide text is derived from it. [ ]: non-standard residue; d: D form. 2Nal = N[CH](Cc1ccc2ccccc2c1)C(=O)O
Labels: 1 for active, -1 for inactive

MOLECULE	TARGET UNDER TEST	CAT
CC(=O)OCC1OC(n2c3c(c(-c4ccc(Cl)cc4)c(C#N)c2=S)C(=O)CC(C)(C)C3)C(OC(C)=O)C(OC(C)=O)C1OC(C)=O (stereo not drawn)	Malme-3M	-1
COc1ccc(C(=O)CC2=Nc3nnc(CCCCCCCc4nnc5n4C(=O)C(CC(=O)c4ccc(OC)cc4)=N5)n3C2=O)cc1	Malme-3M	-1
Nc1cccc(Nc2nc3ccccc3nc2NS(=O)(=O)c2ccccc2)c1	Malme-3M	-1
COc1cc2c(cc1C)NC(=O)/C2=C/c1c(Cl)[nH]c2ccccc12	Malme-3M	-1
O=C1CCc2ccc(O)c(c2)Oc2ccc(cc2)C(Sc2ccccc2)CCO1 (stereo not drawn)	Malme-3M	-1
O=S(=O)(O)c1ccc(/N=N\c2ccc(/N=N/c3ccc(/C=C/c4ccc(/N=[N+](\[O-])c5ccc(/C=C/c6ccc(/N=N/c7ccc(/N=N/c8ccc(S(=O)(=O)O)cc8)c8ccccc78)cc6S(=O)(=O)O)c(S(=O)(=O)O)c5)cc4S(=O)(=O)O)c(S(=O)(=O)O)c3)c3ccccc23)cc1	Malme-3M	-1
Nc1nnc(-c2ccco2)c(-c2ccco2)n1	Malme-3M	-1
CC(NC(=O)C(N)Cc1ccccc1)C(=O)NC(Cc1ccc(O)cc1)C(=O)NC(Cc1c[nH]c2ccccc12)C(=O)NC(CCCCN)C(=O)NC(C(=O)NC(C)C(=O)NC(Cc1ccc2ccccc2c1)C(N)=O)C(C)C (stereo not drawn) (H-FAYWKVA[2Nal]-NH2; configuration not given here)	Malme-3M	-1
O=Cc1cc2c(o1)C(=O)c1ccccc1C2=O	Malme-3M	1
Nc1nc2c(N)cc(C(F)(F)F)cc2nc1-c1ccccc1	Malme-3M	-1
COC(=O)C1([C@@H]2C[C@@H](O)[C@]3(C)CC/C=C(\C)CCC[C@H](C)[C@H](O)[C@@H]2O3)CC1	Malme-3M	-1
N=C(N)C(/N=N\c1ccccc1)C(=N)N (stereo not drawn)	Malme-3M	-1
CCc1n[nH]c(=O)n1CCCCCCCCCCCCn1c(CC)n[nH]c1=O	Malme-3M	-1
CCOC(=O)CC(=O)CSc1c(-c2ccccc2)c(=O)n(-c2ccccc2)c(=S)n1-c1ccccc1	Malme-3M	-1
CO/C=C(/C(=O)OC)c1ccccc1COc1cccc(C(F)(F)F)c1	Malme-3M	-1
CN(C)C(=O)C1CCN(Cc2c[nH]c3ccccc23)CC1	Malme-3M	-1
O=C(O)Cc1cccc2c1Oc1ccccc1S2	Malme-3M	-1
CC(Cn1c(=O)oc2ccccc21)N(C)C (stereo not drawn)	Malme-3M	-1

====

GI50 values by entry
Test system: NCI-H522
PROTOCOL: NCI tumour cell line growth inhibition, 48 h
Counter-ions that a name gives are not always drawn. Active and inactive are the calls of the source. Rule as the data show it: active = GI50 up to about 1.1 µM and inactive = higher.
MEASURE: GI50

COMPOUND	REPORTED VALUE
Cc1c2cnccc2nc2[nH]c3ccncc3c12	3.91 µM (inactive)
COc1ccc2c(c1)CCN=C2Cc1cc(OC)c(OC)cc1CCCl	21.7 µM (inactive)
COC(=O)C1=CO[C@@H](C)[C@@H]2Cn3ccc4c5ccccc5nc-4c3C[C@H]12 [ALSTONINE HYDROCHLORIDE]	51.6 µM (inactive)
COc1ccc2[nH]c3c(cnn4cnnc34)c2c1	> 100 µM (inactive)
CCCCN(CC)C(=O)C(=O)Cc1nc2ccc(C(=O)c3ccccc3)cc2nc1O	20.3 µM (inactive)
O=C(/C=C/c1cccc2ccccc12)c1ccccc1Cl	14.4 µM (inactive)

====

Test system: NCI-H226
PROTOCOL: NCI tumour cell line growth inhibition, 48 h
Active and inactive are the calls of the source. Rule as the data show it: active = GI50 up to about 1.1 µM and inactive = higher.
Labels: YES (active), NO (inactive)

COMPOUND	CAT
COc1ccc2c(c1)C(O)(C(F)(F)F)c1cc(C(=O)C(F)(F)F)c3ccccc3c1N2 (configuration not stated)	NO
C#C[C@@]1(O)CCCC2=CC3(CC[C@]21C)SCCS3	NO
N=C(N)NCCCC(NC(=O)c1cccc2c(=O)c3ccccc3[nH]c12)C(=O)O (configuration not stated)	NO
COc1ccc2nccc(NCCCN3CCN(CCCNc4ccnc5ccc(OC)cc45)CC3)c2c1	YES
CCN(CC)CCCC(C)NC(=O)c1cc(-c2nccn2C)nc2ccc(C)cc12 (configuration not stated)	NO
CC(=O)O[C@]12CCCCCC1C1(O)C(O)CCCC[C@H]12 (some centres not stated)	NO
O=[N+]([O-])c1ccc(C2Nn3c(nnc3-c3cccc([N+](=O)[O-])c3)S2)cc1 (configuration not stated)	YES
C[n+]1c2ccccc2n2c3ccccc3c(NCCc3ccccn3)c(C#N)c21	NO
NCCc1c[nH]c2ccc(OC(=O)C(=O)O)cc12	NO
O=[Se](O)O	YES
CC1(c2ccccc2)N=c2[nH]cnc2=C(C(N)=O)N1 (configuration not stated)	NO
CC[C@]1(Cc2ccc(OC)c(OC)c2)C=[N+]([O-])O[C@H](OC2CCCCC2c2ccccc2)[C@@H]1OC(C)=O (some centres not stated)	NO
C=C(CN)CO[Si](C)(C)C(C)(C)C	NO
c1ccc(SC2CCSc3ccccc3C2Sc2ccccc2)cc1 (configuration not stated)	NO
Cc1cn(C(Cc2ccccc2)OCCO)c(=O)[nH]c1=O (configuration not stated)	NO
COc1cc2[nH]c3c(c2cc1OC)CCN[C@]31CC[C@]2(CC3c4c(cc(OC)c(O)c42)CCN3C)C[C@H]1OC (some centres not stated)	NO
CCC(C)NC(=S)N/N=C(\C)c1ccccn1 (configuration not stated)	YES
COc1ccc(-n2c3c(c4cc(O)ccc42)Cc2ccccc2C3=O)cc1	NO
COc1cc2c(cc1OC)C(C#N)N(C(=O)c1ccccc1)C=C2OC(=O)c1ccccc1 (configuration not stated)	NO
Cc1ccc(-n2c(=S)[nH]c3ccc(Br)cc3c2=O)cc1	NO
CC(C)CC12CC3CCC(CNC1=O)C32C (configuration not stated)	NO
COc1ccc(NC(=O)CC(=O)n2nc(C)c(/N=N/c3cccc(C)c3)c2C)cc1	NO
CCOC(=O)C1=C(C(=O)OCC)C2(c3ccccc3)N(O1)c1ccccc1C2(C)C (configuration not stated)	NO
CC(C)(C)CC(C)(C)NC(=S)NO	NO
O=C1Cc2c([nH]c3ccc(C(=O)O)cc23)-c2ccccc2N1	NO
Cn1c(=O)c2[nH]cnc2n(CC(=O)O)c1=O	NO
Cc1nc2c(=O)[nH]ncc2[nH]1	NO
CCOC(=O)C(Cc1ccccc1)NC(=O)c1ccc(/N=N/N(C)C)cc1 (configuration not stated)	NO
O=C1NC(=O)[C@@H](OCC2CCCCC2)[C@@H]2OCC3OC(C(O)C3O)C12 (some centres not stated)	NO
CC1=CC(C)(C)[C@H]2O[C@@]3(O)C[C@]4(C)[C@H]5C[C@@](C(C)C)(O[C@H]4c4ccoc4)O[C@H]4[C@]5(C3)O[C@@]1(O)[C@]24O	NO
Cc1ccc(-c2cc(-c3ccco3)c(C#N)c(=O)n2C2OC(CO)C(O)C(O)C2O)cc1 (configuration not stated)	NO
O=C(NCCNCCNC(=O)C(F)(F)F)C(F)(F)F	NO
Cc1ccc2ccc(O)cc2c1	NO
C=CCN(c1cc(OCc2ccccc2)c(NC(C)=O)cc1[N+](=O)[O-])S(C)(=O)=O	NO
CN(C)CCCNc1ccc([N+](=O)[O-])c2nc3ccccc3c(N)c12	NO
COP(=O)(OC)/C(=C/c1cn(C(c2ccccc2)(c2ccccc2)c2ccccc2)cn1)NC=O	NO
COC(=O)CN1Cc2cc(C)cc(c2O)CN(CC(=O)OC)Cc2cc(C)cc(c2O)CN(CC(=O)OC)Cc2cc(C)cc(c2O)C1	NO
CC(NS(C)(=O)=O)c1ccccc1 (configuration not stated)	NO
COC(=O)/C=C(\C(=O)OC)c1c2c3c(cc(OC)c(OC)c3c3ccccc13)CCN2C	NO
COc1cc(CNc2nc3c(N)cc(C(F)(F)F)cc3nc2-c2ccccc2)cc(OC)c1OC	NO
CN1NC(c2ccccc2)=C(C#N)C(=O)CC1c1ccc(Br)cc1 (configuration not stated)	YES
COc1ccc(S(=O)(=O)Nc2ccc(-c3csc(N4C(=O)/C(=C/C=C\c5ccccc5)N=C4c4ccccc4)n3)cc2)cc1Cl	NO
